Tested on: OAT1
Construct: host or cells: HEK293
assay-summary: Substrate specificity / uptake in HEK293-OAT1 cells
Type: in vitro ADME
measurement-conditions: human, HEK293-OAT1 minus mock, 0.5–50 μM, read-out: OAT1-mediated uptake: Km
measured-parameter: Km at 5 min

INSERT INTO results (compound, result) VALUES
  ('OC[C@H]1O[C@@H](c2cc(Cc3ccc(C4CC4)cc3)c(Cl)c3c2CCO3)[C@H](O)[C@@H](O)[C@@H]1O [DWP16001]', '38 µM');

----------
assay-summary: logP (partition coefficient of n-octanol/water)
measured-parameter: logP

INSERT INTO assay_data (compound, number) VALUES
  ('OC[C@H]1O[C@@H](c2cc(Cc3ccc(C4CC4)cc3)c(Cl)c3c2CCO3)[C@H](O)[C@@H](O)[C@@H]1O [DWP16001]', 2.65);
